viability, T/C for assorted compounds
Test system: 996289-038-R-J1-PDC complex spheroid viability;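 also: spheroids exposed to the agents for 7 days before readout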
Test: Anticancer human tumor 996289-038-R-J1-PDC patient-derived colon adenocarcinoma cell line growth inhibition [CLK]
Conditions: second compound 0.316 µM; first compound 0.316 µM; stronger effect = lower value
# unit: % | format: bare number

# annotated cases, reported viability, T/C shown
Enquiry: What measured viability, T/C goes with O=C(c1cc(Cc2n[nH]c(=O)c3ccccc23)ccc1F)N1CCN(C(=O)C2CC2)CC1 + CNC(=O)c1ccc(Nc2nc(OC3CCCC3)c3c(-c4ccc5nc(C)oc5c4)c[nH]c3n2)c(OC)c1 ?
Return: 76.3

Enquiry: What measured viability, T/C goes with Nc1ccn(C2OC(CO)C(O)C2(F)F)c(=O)n1 (stereo not given) + CNC(=O)c1ccc(Nc2nc(OC3CCCC3)c3c(-c4ccc5nc(C)oc5c4)c[nH]c3n2)c(OC)c1 ?
Return: 65.4

Enquiry: What measured viability, T/C goes with COc1ccc([C@@H](O)c2cc(-c3ncnc4cc(N5CCOCC5)ccc34)c(F)cc2Cl)nn1 + CNC(=O)c1ccc(Nc2nc(OC3CCCC3)c3c(-c4ccc5nc(C)oc5c4)c[nH]c3n2)c(OC)c1 ?
Return: 68.9

Enquiry: What measured viability, T/C goes with CC(CO)NC(=O)c1cc(-c2ccc(Cl)cc2)nn(-c2cnn(C)c2)c1=O (stereo not given) + CN1CCN(c2cc(C(=O)Nc3cc4cc(-c5cnn(C)c5)ccc4cn3)ccn2)CC1 ?
Return: 67.3

Enquiry: What measured viability, T/C goes with CC1(C)CCC(CN2CCN(c3ccc(C(=O)NS(=O)(=O)c4ccc(NCC5CCOCC5)c([N+](=O)[O-])c4)c(Oc4cnc5[nH]ccc5c4)c3)CC2)=C(c2ccc(Cl)cc2)C1 + CN1CCN(c2cc(C(=O)Nc3cc4cc(-c5cnn(C)c5)ccc4cn3)ccn2)CC1 ?
Return: 74.3

Enquiry: What measured viability, T/C goes with COc1c(OCCCN2CCOCC2)ccc2c3n(c(=NC(=O)c4cnc(N)nc4)nc12)CCN3 + CN1CCN(c2cc(C(=O)Nc3cc4cc(-c5cnn(C)c5)ccc4cn3)ccn2)CC1 ?
Return: 12.7

More entries:
Enquiry: What measured viability, T/C goes with O=c1[nH]cc(F)c(=O)[nH]1 + CNC(=O)c1ccc(Nc2nc(OC3CCCC3)c3c(-c4ccc5nc(C)oc5c4)c[nH]c3n2)c(OC)c1 ?
Return: 72.5

Enquiry: What measured viability, T/C goes with CC1COCCN1c1cc(C2(S(C)(=N)=O)CC2)nc(-c2ccnc3[nH]ccc23)n1 (stereo not given) + CN1CCN(c2cc(C(=O)Nc3cc4cc(-c5cnn(C)c5)ccc4cn3)ccn2)CC1 ?
Return: 69.3

Enquiry: What measured viability, T/C goes with CCCS(=O)(=O)Nc1ccc(F)c(C(=O)c2c[nH]c3ncc(-c4ccc(Cl)cc4)cc23)c1F + CNC(=O)c1ccc(Nc2nc(OC3CCCC3)c3c(-c4ccc5nc(C)oc5c4)c[nH]c3n2)c(OC)c1 ?
Return: 82.8

Enquiry: What measured viability, T/C goes with C#Cc1c(F)ccc2cc(O)cc(-c3ncc4c(N5CC6CCC(C5)N6)nc(OCC56CCCN5CC(F)C6)nc4c3F)c12 (stereo not given) + CNC(=O)c1ccc(Nc2nc(OC3CCCC3)c3c(-c4ccc5nc(C)oc5c4)c[nH]c3n2)c(OC)c1 ?
Return: 35.6
